target_or_system: SARS-CoV spike protein (SARS-CoV, UniProt P59594 14-1190)
quantity_kind: median fluorescence intensity, fold over isotype control (fold over isotype)
Expressed in fold over isotype, but write only the number.

antibody 379 (antibody, V domains shown) VH: QVQLQESGPGLVKPSQTLSLTCTVSGGSISSGGYYWSWIRQHPGKGLEWIGYIYYSGSTYYNPSLKSRVTISVDTSKNQFSLKLSSVTAADTAVYYCARGPLDFWSGYFRLRYFDSWGQGTLVTVSS VL: QSALTQPASVSGSPGQSITISCTGTSSDVGGYNYVSWYQQHPGKAPKLMIYDVTNRPSGVSNRFSGSKSGNTASLTISGLQAEDEADYYCSSYTSSSTCVFGTGTKVTVL yielded median fluorescence intensity, fold over isotype control of 5.9

antibody 323 (antibody, V domains shown) VH: QVQLVQSGAEVKKPGASVKVSCKVSGYTLTELSMHWVRQAPGKGLEWMGGFDPEDGETIYAQKFQGRVTMTEDTSTDTAYMELSSLRSEDTAVYYCATSTIFAPGGWFDPWGQGTLVTVSS VL: QSALTQPASVSGSPGQSITISCTGTSSDVGSYNLVSWYQQHPGKAPKLMIYEVSKRPSGVSNRFSGSKSGNTASLTISGLQAEDEADYYCCSYAGSTHYVFGTGTKVTVL yielded median fluorescence intensity, fold over isotype control of 1.29

antibody 343 (antibody, V domains shown) VH: QVQLVESGGDVVQPGTSLRLSCAASGFTFNNYGFHWVRQAPGKGLEWVALISSDGASTHYADSVKGRFTISRDSSVNTLYLQMNSLSLEDTAVYYCATGHCGTTCYYFDYWGQGTLVSVSS VL: DIQVTQSPSYLSASVGDRVTITCRASQTISTFLQWYQQKVGKAPKLLIYAASTLQSGVPSRFSGSGSGTDFSLTISSLQPEDFATYYCQQSYSAPLSFGGGTKVEIK yielded median fluorescence intensity, fold over isotype control of 1.19
